Quick reference for inhibition among some molecules
- subject.of.test: Virion infectivity factor (Human immunodeficiency virus type 1 group M subtype B (isolate BH10)) + Virion infectivity factor (Human immunodeficiency virus type 1 group M subtype B (isolate BRU/LAI)) + Virion infectivity factor (Human immunodeficiency virus type 1 group M subtype B (isolate PCV12)) + Virion infectivity factor (Human immunodeficiency virus type 1 group M subtype B (isolate HXB2)) + DNA dC->dU-editing enzyme APOBEC-3G (Homo sapiens) (UniProt P69720+P69721+P69722+P69723+Q9HC16)
- assay.notes: inhibitors of Vif binding to APOBEC3G peptide, primary screen, biochemical, TR-FRET, GST-Vif 1-94, biotin-A3G peptide, dose response retest (AID 1117319);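 further: Vif residues 1-94 fused to GST binding biotinylated APOBEC3G peptide 110-148; 0% = full assay without inhibitor and 100% = GST in place of GST-Vif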
- condition.set: stronger effect = higher value
About 1,500 (0.58%) of roughly 260,000 compounds were called active. Roughly 5% stayed inconclusive and do not appear here. The list is a sample of the results. Entries with a potency or affinity are not part of this list.

molecule: Cc1ccc(C(=O)C=Cc2ccc3c(c2)OCO3)c(C)c1
inhibition / %: 0.22
//
molecule: COc1ccc(OCC(=O)N2CCN(S(=O)(=O)c3ccc(Cl)cc3)CC2)cc1
inhibition / %: 0.42
//
molecule: COc1cc2nc(CCc3ccccc3)oc(=O)c2cc1OC
inhibition / %: 19.2
//
molecule: O=C(/C=C/c1ccc2c(c1)OCO2)c1ccc(O)cc1O
inhibition / %: 8.42
//
molecule: O=C(/C=C/c1ccccc1)c1cc(Br)ccc(=O)c1O
inhibition / %: 24.6
//
molecule: O=C(COC(=O)/C=C/c1cc(Br)ccc1F)Nc1ccc2[nH]c(=O)[nH]c2c1
inhibition / %: -2.89
//
molecule: O=C(N/N=C/c1ccc(OC(=O)c2ccccc2)c([N+](=O)[O-])c1)c1ccc(O)cc1
inhibition / %: 2.33
//
molecule: O=C(CSc1ccc(-c2ccccc2)nn1)N1CCOCC1
inhibition / %: 8.48
//
molecule: COc1ccc(C)cc1NC(=O)NCc1ccc(F)cc1
inhibition / %: 7.92
//
molecule: COc1ccc(/C(N)=N/OC(=O)c2ccco2)cc1
inhibition / %: -1.36
//
molecule: COc1cccc(-c2cc3nc4c(c(N5CCC6(CC5)OCCO6)n3n2)CCCC4)c1
inhibition / %: -6.69
//
molecule: Cc1cc(NC(=O)CSc2nnc(Cc3cccn3C)n2CCc2ccccc2)no1
inhibition / %: 24.2
//
molecule: COC(=O)/C=C/c1ccc2c(c1)OCO2
inhibition / %: 4.78
//
molecule: CCOCCCNC(=O)c1ccccc1Br
inhibition / %: 79.3
//
molecule: O=C(CN(CCO)Cc1ccccc1)N1CCN(S(=O)(=O)c2ccccc2)CC1
inhibition / %: 0.45
//
molecule: CC1CCCN(C(=O)NC(=O)c2ccc(Cl)cc2)C1 (stereo not given)
inhibition / %: -0.86
//
molecule: CC(C)C1=Nc2cccc3cccc(c23)N1
inhibition / %: -3.35
//
molecule: Nc1ccccc1C(=O)/C=C/c1ccc2c(c1)OCO2
inhibition / %: 3.13
//
molecule: O=[N+]([O-])c1c(NCCO)cc(N2CCC3(CC2)OCCO3)c2nonc12
inhibition / %: -8.02
//
molecule: CC(C)[C@H](NC(=O)c1ccco1)C(=O)OCC(=O)c1ccc2c(c1)NC(=O)CO2
inhibition / %: 30.8
//
molecule: C/C(Cl)=C/Cc1c(C)[nH]c2ccc(C)cc2c1=O
inhibition / %: -1.26
//
molecule: COc1ccc(Nc2nc(OC)nc(N3CCOCC3)n2)cc1
inhibition / %: -3.38
//
molecule: COc1ccc(CCNC(=O)COc2coc(CN3c4ccccc4CC3C)cc2=O)cc1OC (stereo not given)
inhibition / %: 3.96
//
molecule: COc1cccc(C(=O)OCC(=O)Nc2ccc3c(c2)OCCO3)c1
inhibition / %: -5.71
//
molecule: CCCN1C2CCCC1CC(NC(=O)c1ccccc1Br)C2 (stereo not given)
inhibition / %: -0.94
//
molecule: CC(=O)OCCNc1cc(N2CCN(C)CC2)c2noc3c2c1C(=O)c1ccccc1-3
inhibition / %: 3.2
//
molecule: Cc1ccc(S(=O)(=O)Nc2cccc(-n3cnnn3)c2)cc1
inhibition / %: -12.1
//
molecule: CCN1C(=O)S/C(=C\c2ccc(N3CCOCC3)cc2C)C1=O
inhibition / %: 15.3
//
molecule: CC(=O)Oc1ccc(N2C(=O)C3C4C=CC(O4)C3C2=O)cc1 (stereo not given)
inhibition / %: -0.5
//
molecule: Cc1cc(C(=O)Nc2nc3c(C)cccc3s2)c(C)o1
inhibition / %: 17.4

* * *

inhibition reference
- subject.of.test: Virion infectivity factor (Human immunodeficiency virus type 1 group M subtype B (isolate BH10)) + Virion infectivity factor (Human immunodeficiency virus type 1 group M subtype B (isolate BRU/LAI)) + Virion infectivity factor (Human immunodeficiency virus type 1 group M subtype B (isolate PCV12)) + Virion infectivity factor (Human immunodeficiency virus type 1 group M subtype B (isolate HXB2)) + DNA dC->dU-editing enzyme APOBEC-3G (Homo sapiens) (UniProt P69720+P69721+P69722+P69723+Q9HC16)
- assay.notes: inhibitors of Vif binding to APOBEC3G peptide, primary screen, biochemical, TR-FRET, GST-Vif 1-94, biotin-A3G peptide, dose response retest (AID 1117319);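 further: Vif residues 1-94 fused to GST binding biotinylated APOBEC3G peptide 110-148; 0% = full assay without inhibitor and 100% = GST in place of GST-Vif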
- condition.set: stronger effect = higher value
Out of some 260,000 compounds screened, about 1,500 (0.58%) were called active. Roughly 5% stayed inconclusive and do not appear here. A selection follows. Potency and affinity values are given separately.

compound: CCOC(=O)c1cc(-c2cccc(C(F)(F)F)c2)nc2nc(SC)[nH]c(=O)c12
inhibition / %: -8.37
--
compound: CC[n+]1cccc(-c2nc3ccccc3s2)c1
inhibition / %: 5.45
--
compound: O=C(Nc1ccc(S(=O)(=O)N2CCCC2)cc1)c1cc(=O)c2ccccc2o1
inhibition / %: -4.62
--
compound: CC(C)NCC(O)c1cc(O)cc(O)c1 (stereo not drawn)
inhibition / %: 5.35
--
compound: CCOC(=O)C1(CC)NC(c2ccco2)C2C(=O)N(CC)C(=O)C21 (stereo not drawn)
inhibition / %: 0.75
--
compound: c1cc2c3c(cccc3c1)NC1(CCCCC1)N2
inhibition / %: 10.4
--
compound: NS(=O)(=O)c1ccc(CCNS(=O)(=O)c2ccccc2)cc1
inhibition / %: 22.8
--
compound: O=C(Cc1c(F)cccc1Cl)NCc1cccnc1
inhibition / %: -4.5
--
compound: COc1ccc(C(=O)Nc2cccc(-c3nnc(-c4ccco4)o3)c2)cc1
inhibition / %: -0.63
--
compound: Cc1ccc(S(=O)(=O)NCCSCc2ccco2)cc1
inhibition / %: -0.39
--
compound: CN1CCN(C(=O)c2ccc3nc(-c4ccccc4)c(-c4ccccc4)nc3c2)CC1
inhibition / %: 5.63
--
compound: O=C(c1ccco1)N1CCN(c2ncccn2)CC1
inhibition / %: 5.99
--
compound: O=C(c1cccn2c(=O)c3ccccc3nc12)N1CCN(Cc2ccc3c(c2)OCO3)CC1
inhibition / %: 3

* * *

Listed next: entries and their corresponding inhibition.
- subject.of.test: Virion infectivity factor (Human immunodeficiency virus type 1 group M subtype B (isolate BH10)) + Virion infectivity factor (Human immunodeficiency virus type 1 group M subtype B (isolate BRU/LAI)) + Virion infectivity factor (Human immunodeficiency virus type 1 group M subtype B (isolate PCV12)) + Virion infectivity factor (Human immunodeficiency virus type 1 group M subtype B (isolate HXB2)) + DNA dC->dU-editing enzyme APOBEC-3G (Homo sapiens) (UniProt P69720+P69721+P69722+P69723+Q9HC16)
- assay.notes: inhibitors of Vif binding to APOBEC3G peptide, primary screen, biochemical, TR-FRET, GST-Vif 1-94, biotin-A3G peptide, dose response retest (AID 1117319);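 further: Vif residues 1-94 fused to GST binding biotinylated APOBEC3G peptide 110-148; 0% = full assay without inhibitor and 100% = GST in place of GST-Vif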
- condition.set: stronger effect = higher value
In all, about 260,000 compounds went through this assay and about 1,500 (0.58%) were called active. Inconclusive results (about 5%) are left out. These entries were drawn from the full list. Measured potencies and affinities stand elsewhere.

compound: OCCC1CN(Cc2ccccc2-c2ccco2)CCN1Cc1ccccc1 (stereo not drawn)
inhibition, %: 15.2
//
compound: CC(C)OCCCNCc1cccs1
inhibition, %: -0.18
//
compound: CC(=O)N1CCN(S(=O)(=O)c2ccc(Cl)cc2F)CC1
inhibition, %: -2.38
//
compound: Cc1ccc2c(Cl)cc(Cl)c(OCC(=O)Nc3cccc(S(N)(=O)=O)c3)c2n1
inhibition, %: -2.21
//
compound: Cc1nc(C)n(CC(O)COc2ccc(C(=O)c3ccccc3)cc2)n1 (stereo not drawn)
inhibition, %: 11.5
//
compound: CC(C)(C)c1ccc(/C=C2\Oc3c(ccc(O)c3CN3CCN(CCO)CC3)C2=O)cc1
inhibition, %: 2.03
//
compound: CCOC(=O)C1=C(C)N(C[C@@H]2CC[C@@H](Cc3ccc(-c4ccccc4)cc3)O2)C(=O)NC1c1ccc(SCc2ccco2)c([N+](=O)[O-])c1 (stereo partly drawn)
inhibition, %: 30.7
//
compound: CC(C(=O)OCC(=O)Nc1ccc2c(c1)OCO2)N1C(=O)c2ccccc2C1=O (stereo not drawn)
inhibition, %: 5.56
//
compound: CC/C(=N\Nc1ccc([N+](=O)[O-])cc1[N+](=O)[O-])c1ccc(O)cc1
inhibition, %: -6.92
//
compound: CCOC(=O)CCCn1ncn2c(cc3occc32)c1=O
inhibition, %: 7.22
//
compound: COc1ccc(OC)c(NS(=O)(=O)c2ccc(Br)s2)c1
inhibition, %: 2.77
//
compound: CCN(CC)c1ccc(C(=S)NCc2ccccc2)cc1
inhibition, %: 7.25
//
compound: Cc1cc(C)n2nc(-c3ccsc3-n3c(C)ccc3C)cc2n1
inhibition, %: 16.4
//
compound: Cc1ccc(OCC(=O)N/N=C2/SCC(=O)N2Cc2ccco2)cc1
inhibition, %: 11.4
//
compound: O=C(NC(=O)c1cccc(F)c1)Nc1nc(-c2ccc(F)cc2)cc(C(F)(F)F)n1
inhibition, %: 0.6
//
compound: Clc1ccc(OCc2nn3c(-c4ccccc4)nnc3s2)c(Cl)c1
inhibition, %: -0.95
//
compound: COc1cccc(NC(=O)CN2C(=O)COc3ccc(S(=O)(=O)N4CCC(C)CC4)cc32)c1
inhibition, %: -1.2
//
compound: CCCCNC(=O)CCn1nc(-c2ccccc2)c2ccccc2c1=O
inhibition, %: -4.86
